Source of measurements: the PETadex activity labels (doi:10.1002/cssc.202101062)

# Substrate: gfPET
# assayExplanation: Proxy for plastic degradation [Released monomer concentration (HPLC/LC-MS) (TPA+MHET+BHET)]
# experimentalContext: 75 °C
Mark 1 for Proxy for plastic degradation under 0.05 mmol/h, 0 if at or over.

>>> assignedlabel("unnamed (protein) MDNPYERGPDPTTQSVEAARGPYAVSQITVGGQFGSYSGGTIYYPTSTADGKFGAVAIAPGFLSFQSSVAWLGPRLASQGFVVMTIDTGTIFDQPAQRGDQLLDALDFLTQRSSVKDRIDPNRLAVAGWSMGGGGSLEAAADRPSLKAAIPMAGWNLNTNWSRLTTPVLVVGVQNDLIAPVGSHSEPFYNSIRSEKAYLELAGGSHFTVTSANTPQAKLMISWLKRFVDNDTRYEQFICPGPSRGFSVSEYRSTCPF")
1
>>> assignedlabel("unnamed (protein) MENPYERGPDPTESSIEAVRGPFAVAQTTVSRLQADGFGGGTIYYPTDTSQGTFGAVAISPGFTAGQESIAWLGPRIASQGFVVITIDTITRLDQPDSRGRQLQAALDHLRTNSVVRNRIDPNRMAVMGHSMGGGGALSAAANNTSLEAAIPLQGWHTRKNWSSVRTPTLVVGAQLDTIAPVSSHSEAFYNSLPSDLDKAYMELRGASHFVSNTPDTTTAKYSIAWLKRFVDNDLRYEQFLCPAPDDFAISEYRATCPF")
0
>>> assignedlabel("unnamed (protein) MDNPYERGPDPTTQSVEAARGPYAVSQITVGGQFGSYSGGTIYYPTSTTDGKFGAVAIAPGFLSFQSSVAWLGPRIASQGFVVMTIDTGTIFDQPAQRGDQLLDALDFLTQRSSVKDRIDPNRLAVAGWSMGGGGSLEAAADRPSLKAAIPMAGWNLNTNWSRLTTPVLVVGVQNDLIAPVAMHSEPFYNSIRSEKAYLELAGGSHFTVTSANTPQAKLMISWLKRFVDNDTRYEQFICPGPSRGFSVSEYRSTCPF")
1

Say whether its Proxy for plastic degradation is strictly beneath 0.05 mmol/h. Entry: unnamed (protein) MANPYERGPNPTDALLEARSGPFSVSEENVSRLSASGFGGGTIYYPRENNTYGAVAISPGYTGTEASIAWLGERIASHGFVVITIDTITTLDQPDSRAEQLNAALNHMINRASSTVRSRIDSSRLAVMGHSMGGGGSLRLASQRPDLKAAIPLTPWHLNKNWSSVTVPTLIIGADLDTIAPVATHAKPFYNSLPSSISKAYLELDGATHFAPNIPNKIIGKYSVAWLKRFVDNDTRYTQFLCPGPRDGLFGEVEEYRSTCPF 0

Say whether its Proxy for plastic degradation is strictly beneath 0.05 mmol/h. Entry: unnamed (protein) MANPYERGPDPTVQSIEAVRGPFSVSETNVSRLVVTGFGGGTIYYPRDTSQGTFGAVAIAPGFTASEGSMAWYGPRIASQGFVVFTIDTLTRLDQPDSRGRQLLAALDYLTQRSSVRSRIDSSRLAVMGHSMGGGGSLEASESRPSLKASIPLTPWNLKKNWRNNRVPTLIVGAENDSIASVRTHAEPFYESIPSTTNKAYLELNNATHFAPNISNTTIAKYSISWLKRFVDNDTRYEQFLCPPPRPDRDIEEYRCTCPY 0
